Entries and their Population Hoechst High Intensity Objects (%)
# Test system: HEK-293T
# assay_remarks: Multiplex assay against HEK293T
# Type: toxicity, cell-based
# measurement_conditions: human, 12 h, 1 µM, compound concentration 1 uM, replicate 1
endpoint: Population Hoechst High Intensity Objects (%)

Cc1ccc(-c2ccc(F)cc2COc2ccc(CCC(=O)O)cc2)cc1 = 9
Cc1ccc(/C(=C\CN2CCCC2)c2ccccn2)cc1 [TRIPROLIDINE] = 7
N#Cc1c(N)nc(SCc2csc(-c3ccc(Cl)cc3)n2)c(C#N)c1-c1ccc(OCCO)cc1 [CAPADENOSON] = 8
C[C@H](NC(=O)c1c(C(F)F)nn(C)c1Oc1cccc(C(F)(F)F)c1)c1ccc(C(=O)O)cc1 [PALUPIPRANT] = 7
CCCC(CCC)C(=O)O [VALPROIC ACID] = 6
O=C(NCC(=O)N1CC[C@H](N[C@H]2CC[C@@](O)(c3ccc(-c4ncccn4)cn3)CC2)C1)c1cccc(C(F)(F)F)c1 [PF-4136309] = 4
CCNC1(C(N)=O)CCN(c2ncnc3c2nc(-c2ccccc2Cl)n3-c2ccc(Cl)cc2)CC1 [OTENABANT] = 10
Cc1nc2ccc(Oc3ccc(F)cc3)cc2c(=O)n1C[C@H]1CCCN(C(C)C)C1.Cl = 6

* * *

# System: HEK-293T
# assay_remarks: Multiplex assay against HEK293T
# Format: toxicity, cell-based
# measurement_conditions: human, 12 h, 10 µM, compound concentration 10 uM, replicate 2
Entries and their Total Cell Count
endpoint: Total Cell Count

COc1c(C)cc(NC(=O)c2nn(Cc3ccc(F)cc3)c3c2CN(C(=O)c2ccc[nH]2)C[C@]3(C)C(N)=O)cc1C = 285
COc1cc(NC(=O)CCN2CCC(OC(=O)Nc3ccccc3-c3ccccc3)CC2)c(Cl)cc1CNC[C@H](O)c1ccc(O)c2[nH]c(=O)ccc12 [BATEFENTEROL] = 303
O=C(O)Cc1ccccc1Nc1c(Cl)cccc1Cl [DICLOFENAC] = 370
N#Cc1c(N)nc(SCc2csc(-c3ccc(Cl)cc3)n2)c(C#N)c1-c1ccc(OCCO)cc1 [CAPADENOSON] = 388
CCCN1CCC[C@@H]2Cc3n[nH]cc3C[C@H]21.Cl [QUINPIROLE HYDROCHLORIDE] = 312

* * *

# Tested on: Fibroblast
# assay_remarks: Multiplex assay against human fibroblast
# Assay type: toxicity, cell-based
# measurement_conditions: 48 h, 10 µM, compound concentration 10 uM, replicate 2
# 1 = Population Pyknosed Nuclei (%) below 9% (exclusive); 0 = Population Pyknosed Nuclei (%) at/above 9%

O=C(O)c1cc2ccccc2c(Cc2c(O)c(C(=O)O)cc3ccccc23)c1O = 1
N#Cc1c(N)nc(SCc2csc(-c3ccc(Cl)cc3)n2)c(C#N)c1-c1ccc(OCCO)cc1 = 0
C[C@@H]1C[C@H]2[C@@H]3CCC4=CC(=O)C=C[C@]4(C)[C@@]3(F)[C@@H](O)C[C@]2(C)[C@@]1(O)C(=O)CO = 0
C[C@H]1[C@H]2CC[C@H]3[C@@H]4CC=C5C[C@@H](N(C)C)CC[C@]5(C)[C@H]4CC[C@]23CN1C = 0

* * *

# Tested on: U2OS
# assay_remarks: Multiplex assay against U2OS
# Type: toxicity, cell-based
# measurement_conditions: human, 48 h, 1 µM, compound concentration 1 uM, replicate 1
Entries and their Population Hoechst High Intensity Objects (%)
endpoint: Population Hoechst High Intensity Objects (%)

O=S(=O)(c1ccccc1)c1cnc2c(N3CCNCC3)cccc2c1 [INTEPIRDINE] = 3
C[C@@H]1C[C@H]2[C@@H]3CCC4=CC(=O)C=C[C@]4(C)[C@@]3(F)[C@@H](O)C[C@]2(C)[C@@]1(O)C(=O)CO = 1
COc1ccc2c(c1)C(C(=O)N(Cc1ccc(N(C)C)cc1)c1ccc(C(C)C)cc1)CCC2.Cl (stereo unspecified) = 2
C[C@H](NC(=O)c1c(C(F)F)nn(C)c1Oc1cccc(C(F)(F)F)c1)c1ccc(C(=O)O)cc1 = 2
CCCC(CCC)C(=O)O = 3
CNC[C@H](O)c1ccc(O)c(O)c1 [EPINEPHRINE] = 0
CSc1ccccc1N1CCN(CCCCCC(=O)NC2CCCc3ccccc32)CC1.Cl (stereo unspecified) = 8
Cc1ccc(F)cc1C(=O)Nc1ccc(C(=O)N2Cc3cccn3Cc3ccccc32)c(Cl)c1 = 1
Oc1c(CN2CCN(c3ccccn3)CC2)cc(Cl)c2cccnc12 = 3
CC1(COc2ccc3c(c2)ncn3-c2ccc3cccc(N4CCC(N)CC4)c3n2)COC1 = 8
COc1cc(NC(=O)CCN2CCC(OC(=O)Nc3ccccc3-c3ccccc3)CC2)c(Cl)cc1CNC[C@H](O)c1ccc(O)c2[nH]c(=O)ccc12 = 3

* * *

Entries and their Population Apoptotic (%)
# System: HEK-293T
# assay_remarks: Multiplex assay against HEK293T
# Assay type: toxicity, cell-based
# measurement_conditions: human, 12 h, 10 µM, compound concentration 10 uM, replicate 2
endpoint: Population Apoptotic (%)

Cl.Clc1ccc2nsnc2c1NC1=NCCN1 [TIZANIDINE HYDROCHLORIDE] = 46
O=C1COc2nccc(-c3ccccc3F)c2CN1Cc1cc(C(F)(F)F)cc(C(F)(F)F)c1 = 57
CCNC1(C(N)=O)CCN(c2ncnc3c2nc(-c2ccccc2Cl)n3-c2ccc(Cl)cc2)CC1 [OTENABANT] = 63
Oc1c(CN2CCN(c3ccccn3)CC2)cc(Cl)c2cccnc12 = 73
CSc1ccccc1N1CCN(CCCCCC(=O)NC2CCCc3ccccc32)CC1.Cl (centres undefined) = 79
O=C(O)Cc1ccccc1Nc1c(Cl)cccc1Cl [DICLOFENAC] = 57
CCOc1c2c(c(OCC)c3ncccc13)CN(c1ccc(CS(=O)(=O)NC(=O)Cc3ccccc3OC)cc1C)C2=O = 53
CSCC[C@H](NC=O)C(=O)N[C@@H](CC(C)C)C(=O)N[C@@H](Cc1ccccc1)C(=O)O = 54
CCCN1CCC[C@@H]2Cc3n[nH]cc3C[C@H]21.Cl [QUINPIROLE HYDROCHLORIDE] = 46

* * *

Entries and their Total Cell Count
# Test system: U2OS
# assay_remarks: Multiplex assay against U2OS
# Type: toxicity, cell-based
# measurement_conditions: human, 24 h, 10 µM, compound concentration 10 uM, replicate 1
endpoint: Total Cell Count

O=C1COc2nccc(-c3ccccc3F)c2CN1Cc1cc(C(F)(F)F)cc(C(F)(F)F)c1 = 210
C[C@H]1[C@H]2CC[C@H]3[C@@H]4CC=C5C[C@@H](N(C)C)CC[C@]5(C)[C@H]4CC[C@]23CN1C = 265
Cl.Clc1ccc2nsnc2c1NC1=NCCN1 [TIZANIDINE HYDROCHLORIDE] = 327
O=C(O)Cc1ccccc1Nc1c(Cl)cccc1Cl = 311
CCCN1CCC[C@@H]2Cc3n[nH]cc3C[C@H]21.Cl [QUINPIROLE HYDROCHLORIDE] = 281
CN(C)CCCc1cc(C(=O)Nc2ccc(-c3ccncc3)cc2)ccc1O.Cl.Cl = 257
N[C@@]1(C(=O)O)CO[C@H]2[C@H](C(=O)O)[C@H]21 = 284
CC1(COc2ccc3c(c2)ncn3-c2ccc3cccc(N4CCC(N)CC4)c3n2)COC1 = 254
CN1CCN2c3ncccc3Cc3ccccc3C2C1 (centres undefined) = 314
Cc1nc2ccc(Oc3ccc(F)cc3)cc2c(=O)n1C[C@H]1CCCN(C(C)C)C1.Cl = 297
CCOc1c2c(c(OCC)c3ncccc13)CN(c1ccc(CS(=O)(=O)NC(=O)Cc3ccccc3OC)cc1C)C2=O = 285
CCNC1(C(N)=O)CCN(c2ncnc3c2nc(-c2ccccc2Cl)n3-c2ccc(Cl)cc2)CC1 = 218
CC(C)(C)c1ccc(S(=O)(=O)Nc2ccc(Cl)cc2C(=O)c2cc[n+]([O-])cc2)cc1 = 297
c1cc(OCCCN2CCCCC2)ccc1CN1CCCCC1 = 271
CNC[C@H](O)c1ccc(O)c(O)c1 [EPINEPHRINE] = 195
N#Cc1c(N)nc(SCc2csc(-c3ccc(Cl)cc3)n2)c(C#N)c1-c1ccc(OCCO)cc1 = 253
CSCC[C@H](NC=O)C(=O)N[C@@H](CC(C)C)C(=O)N[C@@H](Cc1ccccc1)C(=O)O = 247
CC(=O)NCCc1c(Cc2ccccc2)[nH]c2ccccc12 = 342
CSc1ccccc1N1CCN(CCCCCC(=O)NC2CCCc3ccccc32)CC1.Cl (centres undefined) = 219

* * *

# Test system: HEK-293T
# assay_remarks: Multiplex assay against HEK293T
# Type: toxicity, cell-based
# measurement_conditions: human, 24 h, 1 µM, compound concentration 1 uM, replicate 1
Please mark satisfied if the recorded Population Tubulin-Different-Phenotype (%) is equal to or greater than 20%, and not satisfied if it falls below.

CC1(COc2ccc3c(c2)ncn3-c2ccc3cccc(N4CCC(N)CC4)c3n2)COC1 [CRENOLANIB] = satisfied
Cc1ccc(C(C)(O)c2nc3ccccc3s2)c(C)c1 (centres undefined) = not satisfied
O=C(O)Cc1ccccc1Nc1c(Cl)cccc1Cl [DICLOFENAC] = satisfied
Cc1ccc(-c2ccc(F)cc2COc2ccc(CCC(=O)O)cc2)cc1 = not satisfied
COc1cc(NC(=O)CCN2CCC(OC(=O)Nc3ccccc3-c3ccccc3)CC2)c(Cl)cc1CNC[C@H](O)c1ccc(O)c2[nH]c(=O)ccc12 [BATEFENTEROL] = satisfied
CNC[C@H](O)c1ccc(O)c(O)c1 [EPINEPHRINE] = satisfied
Cl.Clc1ccc2nsnc2c1NC1=NCCN1 [TIZANIDINE HYDROCHLORIDE] = not satisfied

The measurements presented in this section are drawn from ChEMBL document CHEMBL5058577.
